Parameter foaming decomposition temperature: see the listing below.
test: Foaming decomposition temperature; assay type: physicochemical
Give just the numeric value; °C need not be written.

Examples with answers:
[[record]]
compound = "C=CCOC(=O)OOC(C)(C)C [t-butylperoxy allyl carbonate]"
property_name = "foaming decomposition temperature"
unit_spec = "°C"
reported = 117.5

[[record]]
compound = "C=C(C)COC(=O)OOC(C)(C)CC(C)(C)C"
property_name = "foaming decomposition temperature"
unit_spec = "°C"
reported = 106.5

[[record]]
compound = "C=C(C)COC(=O)OOC(C)(C)C [t-butylperoxy methallyl carbonate]"
property_name = "foaming decomposition temperature"
unit_spec = "°C"
reported = 117.5


// below: foaming decomposition temperature requested for another compound
-- ask Using the record for "C=CCOC(=O)OOC(C)(C)CC(C)(C)C" , report its foaming decomposition temperature.
-- reply 103.5

###

Conditions: 105° C, solvent benzene
Excerpt: The susceptibility of the peroxycarbonate to heat decomposition can be ascertained from its half life and the foaming temperature thereof.
Parameter Half life: see the listing below.
Give just the numeric value; h need not be written.

Examples with answers:
[[record]]
compound = "C=C(C)COC(=O)OOC(C)(C)CC(C)(C)C"
unit_spec = "h"
reported = 1.1

[[record]]
compound = "C=CCOC(=O)OOC(C)(C)CC(C)(C)C"
unit_spec = "h"
reported = 1.4

[[record]]
compound = "CC(C)C(=O)OOC(C)(C)C [t-butyl peroxy isobutyrate, t-butyl peroxyisobutyrate, reference compound]"
unit_spec = "h"
reported = 0.37

[[record]]
compound = "C=CCOC(=O)OOC(C)(C)C [t-butylperoxy allyl carbonate]"
unit_spec = "h"
reported = 3.9


-- ask Using the record for CC(C)OC(=O)OOC(C)(C)C [t-butylperoxy isopropyl carbonate, reference compound] , report its Half life.
-- reply 4.1

-- ask Using the record for C=C(C)COC(=O)OOC(C)(C)C [t-butylperoxy methallyl carbonate] , report its Half life.
-- reply 2.9
